Assay: resazurin metabolic signal in A549 cells – cell-based, resazurin fluorescence, 24 h, PK04 Diversity Set, profiling panel (AID 1171); further: test concentration not given here
Conditions: A549 viability, higher = more signal, called active from +8 up or from −8 down
z-score by entry:
quantity measured: z-score

item_smiles=CCOC(=O)C[C@H]1[C@H](OC(=O)c2cc3ccccc3oc2=O)[C@@H](NC(=O)CC(C)C)c2cc(OCCCO)ccc2N1C(=O)c1ccc2ccccc2n1 assay_value=-0.103
item_smiles=C=CCNC(=O)[C@@H]1[C@H]2C(=O)O[C@H](c3ccccc3)[C@H](c3ccccc3)N2[C@H](c2ccc(OCCO)cc2)[C@@]12C(=O)N(C(=O)OCCOC)c1ccc(C#Cc3ccc(OC)cc3)cc12 assay_value=0.927
item_smiles=COC(=O)[C@@]1(Cc2ccc(OC)cc2)[C@H]2c3cc(C(=O)N(C)C)n(Cc4ccc(C)o4)c3C[C@H]2CN1C(=O)c1ccccc1 assay_value=-0.21

----------
Biological target: E3 ubiquitin-protein ligase XIAP (Homo sapiens) (UniProt P98170)
Sequence (P98170 whole entry, looked up): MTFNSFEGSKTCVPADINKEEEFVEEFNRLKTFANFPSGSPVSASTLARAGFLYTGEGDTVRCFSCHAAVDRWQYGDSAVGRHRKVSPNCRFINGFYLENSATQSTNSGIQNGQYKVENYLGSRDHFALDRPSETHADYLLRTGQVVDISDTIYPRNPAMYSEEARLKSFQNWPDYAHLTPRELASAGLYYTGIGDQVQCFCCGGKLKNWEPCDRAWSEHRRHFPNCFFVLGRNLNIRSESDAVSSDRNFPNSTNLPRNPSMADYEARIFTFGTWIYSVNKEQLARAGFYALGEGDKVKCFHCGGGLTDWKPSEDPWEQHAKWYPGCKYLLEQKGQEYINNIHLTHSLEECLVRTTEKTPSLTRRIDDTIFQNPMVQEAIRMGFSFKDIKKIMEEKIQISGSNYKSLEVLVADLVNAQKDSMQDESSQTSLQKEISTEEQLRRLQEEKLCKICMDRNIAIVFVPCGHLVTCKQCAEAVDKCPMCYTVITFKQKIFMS
Experiment: small molecules binding XIAP protein – biophysical, small-molecule microarray, fluorescence 635 nm, primary screen (AID 1181);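 further: score merges 667 nm emission and signal to noise over triplicate slides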
Details: higher = more signal
# binarize composite z-score: threshold -0.04 inclusive, high side 1, low side -1

compound=COC(=O)[C@@H]1N=C(c2ccc(OCCCO)cc2)O[C@@H]1C category=1
compound="CN1C(=O)C2C=CC(C(O)c3cccn3C)N(Nc3ccc([N+](=O)[O-])cc3[N+](=O)[O-])C2C1=O (stereo not given)" category=-1
compound=C=C(/C(=C/C[C@H](OC(=O)c1ccncc1)c1ccc(CO)o1)c1cnc2ccccc2c1)C(C)C category=-1
compound=CC(C)[Si]1(C(C)C)OCc2cc(C3CC3)nc(-c3ccc(Oc4ccccc4)cc3)c21 category=-1
compound=NC(=O)NCC#Cc1ccc2c(c1)[C@]1(C(=O)N2)[C@H](C(=O)N2CCN(c3ncccn3)CC2)[C@H]2C(=O)O[C@H](c3ccccc3)[C@H](c3ccccc3)N2[C@@H]1c1ccc(O)cc1 category=-1
compound="COc1cc(NN2C(C(O)c3ccc(N(C)C)cc3)C=CC3C(=O)N(c4ccccc4)C(=O)C32)cc(OC)c1OC (stereo not given)" category=1
compound=C=CCNC(=O)[C@@H]1[C@H]2C(=O)O[C@H](c3ccccc3)[C@H](c3ccccc3)N2[C@H](c2ccccc2OCCO)[C@@]12C(=O)Nc1ccc(C#CCC(C(=O)OC)C(=O)OC)cc12 category=1
compound=COC(=O)[C@@]1(Cc2ccccc2)[C@H]2c3cc(C(=O)N(C)C)n(Cc4ccc(C)o4)c3C[C@H]2CN1C(=O)c1ccccc1 category=1
compound="CCCCCN1CC=CC23O[C@@H]4C=CCCOC(=O)C4[C@H]2C(=O)N(CCCCCCO)[C@@H]3C1=O (stereo not given in full)" category=1
compound="CC1CC/C=C\\[C@H]2OC34C=CCN(c5ccc6ccccc6c5)C(=O)[C@H]3N(CCCO)C(=O)[C@@H]4C2C(=O)O1 (stereo not given in full)" category=1
compound="CN1C2C=C(CCCO)C(C3C(=O)N(C(N)=O)C(=O)C32)C1C1CC1 (stereo not given)" category=1
compound=C=CCN1C(=O)[C@]2(CCC(=O)OC(C)(C)C)N=C(c3ccc(OCCCO)cc3)O[C@@H]2c2ccccc21 category=1
compound="CCCCC(CC)C(O)C1C=CC2C(=O)N(c3ccccc3)C(=O)C2N1Nc1ccccc1F (stereo not given)" category=1
compound=C=CCOC(=O)[C@@]1(Cc2ccccc2)C[C@H]2CO[C@H](c3ccc(OC)cc3)N2C1=O category=-1
compound=COC(=O)[C@@]1(Cc2ccc(F)cc2)[C@H]2c3cc(C(=O)N(C)C)n(Cc4ccc(OC(F)(F)F)cc4)c3C[C@H]2CN1C(=O)c1ccccc1 category=-1
